Values from patent US9221809B2

Biological target: IRAK4 (Homo sapiens (Human))
Assay: IRAK4 kinase activity, IMAP fluorescence polarization assay
Assay type: biochemical
Details: 100 μM ATP; read-out: IRAK4 IC50
Here the recorded pIC50 is given for each entry.
// pIC50 here means minus log10 of the molar concentration (mol/L)

Look over these answered cases.
Query :: Value lookup for pIC50; key = COc1ccnc(N2CCN(c3nc(N[C@@H]4CCCNC4)c(-c4nc5ccccc5s4)c(=O)[nH]3)CC2)c1 [Example 142]
Result :: 8.22

Query :: Fill in: pIC50 of C[C@@H]1COCCN1c1nc(N[C@@H]2CCCNC2)c(-c2nc3ccccc3s2)c(=O)[nH]1 [Example 127] is ___
Result :: 5.77

Continuing:
Query :: Please report the recorded pIC50 for O=c1[nH]c(N2CCN(c3ncc(C(F)(F)F)cc3Cl)CC2)nc(N[C@@H]2CCCNC2)c1-c1nc2ccccc2s1 [Example 133] .
Result :: 7.77

Query :: Name the reported pIC50 value associated with the compound O=c1[nH]c(N2CCN(c3ccc(C(F)(F)F)cn3)CC2)nc(N[C@@H]2CCCNC2)c1-c1nc2ccccc2s1 [Example 135]
Result :: 7.96

Query :: Which pIC50 value is on record for O=c1[nH]c(N2CCOCC2)nc(N[C@@H]2CCCNC2)c1-c1cncc(-n2cccc2)n1 [Example 198] ?
Result :: 5.46

Query :: Suppose we examine the compound COc1ccccc1C1CCN(c2nc(N[C@@H]3CCCNC3)c(-c3ccc4ccccc4n3)c(=O)[nH]2)CC1 [Example 189] ; what pIC50 value has been reported?
Result :: 7.89

* * *

Target: IRAK4 (Homo sapiens (Human), UniProt Q9NWZ3)
Sequence (Q9NWZ3 whole entry): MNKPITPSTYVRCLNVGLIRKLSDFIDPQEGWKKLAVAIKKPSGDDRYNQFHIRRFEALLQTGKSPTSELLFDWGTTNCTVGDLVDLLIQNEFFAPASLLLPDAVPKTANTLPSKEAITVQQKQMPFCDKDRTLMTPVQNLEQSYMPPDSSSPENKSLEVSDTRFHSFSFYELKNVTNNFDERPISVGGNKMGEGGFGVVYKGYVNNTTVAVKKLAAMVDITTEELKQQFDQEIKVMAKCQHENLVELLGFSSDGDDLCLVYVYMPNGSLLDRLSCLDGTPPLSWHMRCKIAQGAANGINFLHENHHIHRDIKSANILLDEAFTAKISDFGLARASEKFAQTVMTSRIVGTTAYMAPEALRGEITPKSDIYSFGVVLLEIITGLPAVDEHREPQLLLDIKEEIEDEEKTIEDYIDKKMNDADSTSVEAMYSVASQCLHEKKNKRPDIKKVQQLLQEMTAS
Assay: IRAK4 kinase activity, IMAP fluorescence polarization assay
Assay type: biochemical
Conditions: 100 μM ATP; read-out: IC50
As shown below, each of these molecules has a reported log10(IC50) value.
Would you kindly interpret these values as log10 of IC50 expressed in nM?

Query :: Fill in: log10(IC50) of O=c1[nH]c(N2CCC(NCc3ccccc3)CC2)nc(N[C@@H]2CCCNC2)c1-c1nc2ccccc2s1 [Example 332, trifluoroacetic acid] is ___
Result :: 2.04

Query :: Which log10(IC50) is reported for this molecule? O=c1[nH]c(N2CCOCC2)nc(N[C@@H]2C[C@@H]3CN[C@H]2C3)c1-c1nc2ccccc2s1 [Example 211]
Result :: 2.28

Query :: Could you tell me which log10(IC50) is on file for O=c1[nH]c(N[C@@H]2c3ccccc3C[C@@H]2O)nc(N[C@@H]2CCCNC2)c1-c1nc2ccccc2s1 [Example 299, formic acid] ?
Result :: 3.08

Query :: What value of measured log10(IC50) is listed for NC(=O)CNc1nc(N[C@@H]2CCCNC2)c(-c2nc3ccccc3s2)c(=O)[nH]1 [Example 302, bis(2,2,2-trifluoroacetate)] ?
Result :: 3.36

Others:
Query :: Endpoint output: log10(IC50) of O=c1[nH]c(N2CCC3(CCN(c4ncccn4)C3)C2)nc(N[C@@H]2CCCNC2)c1-c1nc2ccccc2s1 (some centres unmarked) [Example 324, trifluoroacetic acid] . Value?
Result :: 1.08

* * *

Target: IRAK4 (Homo sapiens (Human), UniProt Q9NWZ3)
Experiment: IRAK4 kinase activity, IMAP fluorescence polarization assay
Type: biochemical
Settings: 100 μM ATP; read-out: IRAK4 IC50
Reported IC50 values for a set of compounds
Hi! Could you send only the number? It should be in nM, unit omitted.

# annotated cases, reported IC50 shown
Query :: Data request, read-out IC50, for O=c1[nH]c(N2CCN(c3nccs3)CC2)nc(N[C@@H]2CCCNC2)c1-c1nc2ccccc2s1
Result :: 12

Query :: Entry O=c1[nH]c(N2CCN(c3nncs3)CC2)nc(N[C@@H]2CCCNC2)c1-c1nc2ccccc2s1 has what IC50?
Result :: 20

Query :: // query IC50 value for entry O=c1[nH]c(N2CCC(c3ccccc3C(F)(F)F)CC2)nc(N[C@@H]2CCCNC2)c1-c1ccc2ccccc2n1
Result :: 32

Below: the item to evaluate.
Query :: I have this compound here, O=c1[nH]c(N2CCN(c3ccccn3)CC2)nc(N[C@@H]2CCCNC2)c1-c1nc2ccccc2s1 , and I need its recorded IC50.
Result :: 8
